Target: UniProtKB P49286
Sequence (P49286 whole entry): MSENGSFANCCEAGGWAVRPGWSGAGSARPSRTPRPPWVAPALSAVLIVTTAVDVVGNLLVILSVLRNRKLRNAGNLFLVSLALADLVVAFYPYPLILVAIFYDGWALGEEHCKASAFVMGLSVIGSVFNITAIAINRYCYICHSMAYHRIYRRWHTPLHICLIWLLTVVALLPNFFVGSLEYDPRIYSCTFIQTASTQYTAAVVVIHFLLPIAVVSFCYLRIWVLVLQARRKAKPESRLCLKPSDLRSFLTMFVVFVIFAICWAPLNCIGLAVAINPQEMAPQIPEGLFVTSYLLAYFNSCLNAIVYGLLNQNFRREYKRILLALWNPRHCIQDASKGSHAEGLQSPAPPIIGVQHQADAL
Experiment: Displacement of 2-[125I]-iodomelatonin from human melatonin receptor MT2 expressed in CHO cells after 1 hr by gamma counting analysis
Assay type: cell-based
Details: read-out: Ki

- structure smiles string: "CC(=O)NCCc1cccc2ccc(OCCCc3ccccc3)cc12"
  measurement target: "UniProtKB P49286"
  units label: "nM"
  Ki: 9
- structure smiles string: "CC(=O)NCCc1cccc2ccc(OCCCOc3ccccc3)cc12"
  measurement target: "UniProtKB P49286"
  units label: "nM"
  Ki: 44
- structure smiles string: "CC(=O)NCCc1cccc2ccc(OCCCCc3ccccc3)cc12"
  measurement target: "UniProtKB P49286"
  units label: "nM"
  Ki: 9
- structure smiles string: "COc1ccc2cccc(CCNC(=O)C(F)(F)F)c2c1"
  measurement target: "UniProtKB P49286"
  units label: "nM"
  Ki: 2
- structure smiles string: "COc1ccc2cccc(CCNC(=O)C(F)F)c2c1"
  measurement target: "UniProtKB P49286"
  units label: "nM"
  Ki: 0.85
- structure smiles string: "COc1ccc2cccc(CCNC(=O)C(Cl)Cl)c2c1"
  measurement target: "UniProtKB P49286"
  units label: "nM"
  Ki: 2
